System: 171881-019-R-J1-PDC complex spheroid growth, % test/control
experiment.notes: Anticancer human tumor 171881-019-R-J1-PDC patient-derived invasive breast carcinoma cell line growth inhibition [Asc]
experimental.context: second compound 0.316 µM; first compound 1 µM; stronger effect = lower value
What viability, T/C was measured for each of the following?
Reply numerically in %, unit not repeated.

Tell me the measured viability, T/C of C#Cc1c(F)ccc2cc(O)cc(-c3ncc4c(N5CC6CCC(C5)N6)nc(OCC56CCCN5CC(F)C6)nc4c3F)c12 (stereo not drawn) + Cc1c(S(C)(=O)=O)c(-c2cc(F)cc(N3CCN(c4ccc(NS(=O)(=O)c5ccc(NC(CCN6CCC(C(=O)OCCCP(=O)(O)O)CC6)CSc6ccccc6)c(S(=O)(=O)C(F)(F)F)c5)cc4)CC3)c2)c(-c2ccc(Cl)cc2)n1C(C)C , please.
165

Tell me the measured viability, T/C of O=C(c1cc(Cc2n[nH]c(=O)c3ccccc23)ccc1F)N1CCN(C(=O)C2CC2)CC1 + Cc1c(S(C)(=O)=O)c(-c2cc(F)cc(N3CCN(c4ccc(NS(=O)(=O)c5ccc(NC(CCN6CCC(C(=O)OCCCP(=O)(O)O)CC6)CSc6ccccc6)c(S(=O)(=O)C(F)(F)F)c5)cc4)CC3)c2)c(-c2ccc(Cl)cc2)n1C(C)C , please.
125

Tell me the measured viability, T/C of C=CC(=O)N1CCN(c2nc(=O)n(-c3c(C)ccnc3C(C)C)c3nc(-c4c(O)cccc4F)c(F)cc23)C(C)C1 (stereo not drawn) + Cc1c(S(C)(=O)=O)c(-c2cc(F)cc(N3CCN(c4ccc(NS(=O)(=O)c5ccc(NC(CCN6CCC(C(=O)OCCCP(=O)(O)O)CC6)CSc6ccccc6)c(S(=O)(=O)C(F)(F)F)c5)cc4)CC3)c2)c(-c2ccc(Cl)cc2)n1C(C)C , please.
86.9

---

Tested on: 171881-019-R-J1-PDC complex spheroid growth, % test/control
experiment.notes: Anticancer human tumor 171881-019-R-J1-PDC cell line growth inhibition [Asc]
experimental.context: curve of first compound; second compound 0.1 µM
pIC50: −log10 of the molar value.
result.type: pIC50

Tell me the measured pIC50 of C=CC(=O)N1CCN(c2nc(=O)n(-c3c(C)ccnc3C(C)C)c3nc(-c4c(O)cccc4F)c(F)cc23)C(C)C1 (centres undefined) + Cc1c(S(C)(=O)=O)c(-c2cc(F)cc(N3CCN(c4ccc(NS(=O)(=O)c5ccc(NC(CCN6CCC(C(=O)OCCCP(=O)(O)O)CC6)CSc6ccccc6)c(S(=O)(=O)C(F)(F)F)c5)cc4)CC3)c2)c(-c2ccc(Cl)cc2)n1C(C)C , please.
< 5.00

Tell me the measured pIC50 of Cc1nc(N2CCC3(CC2)COC(C)C3N)c(CO)nc1Sc1ccnc(N)c1Cl (centres undefined) + Cc1c(S(C)(=O)=O)c(-c2cc(F)cc(N3CCN(c4ccc(NS(=O)(=O)c5ccc(NC(CCN6CCC(C(=O)OCCCP(=O)(O)O)CC6)CSc6ccccc6)c(S(=O)(=O)C(F)(F)F)c5)cc4)CC3)c2)c(-c2ccc(Cl)cc2)n1C(C)C , please.
< 5.52

Tell me the measured pIC50 of O=C(c1cc(Cc2n[nH]c(=O)c3ccccc23)ccc1F)N1CCN(C(=O)C2CC2)CC1 + Cc1c(S(C)(=O)=O)c(-c2cc(F)cc(N3CCN(c4ccc(NS(=O)(=O)c5ccc(NC(CCN6CCC(C(=O)OCCCP(=O)(O)O)CC6)CSc6ccccc6)c(S(=O)(=O)C(F)(F)F)c5)cc4)CC3)c2)c(-c2ccc(Cl)cc2)n1C(C)C , please.
< 5.00

Tell me the measured pIC50 of Cn1ncnc1[C@H]1c2n[nH]c(=O)c3cc(F)cc(c23)N[C@@H]1c1ccc(F)cc1 + Cc1c(S(C)(=O)=O)c(-c2cc(F)cc(N3CCN(c4ccc(NS(=O)(=O)c5ccc(NC(CCN6CCC(C(=O)OCCCP(=O)(O)O)CC6)CSc6ccccc6)c(S(=O)(=O)C(F)(F)F)c5)cc4)CC3)c2)c(-c2ccc(Cl)cc2)n1C(C)C , please.
< 7.00
